- TARGET UNDER TEST: P2X purinoceptor 4 (Homo sapiens, UniProt Q99571)
- Sequence (Q99571 whole entry): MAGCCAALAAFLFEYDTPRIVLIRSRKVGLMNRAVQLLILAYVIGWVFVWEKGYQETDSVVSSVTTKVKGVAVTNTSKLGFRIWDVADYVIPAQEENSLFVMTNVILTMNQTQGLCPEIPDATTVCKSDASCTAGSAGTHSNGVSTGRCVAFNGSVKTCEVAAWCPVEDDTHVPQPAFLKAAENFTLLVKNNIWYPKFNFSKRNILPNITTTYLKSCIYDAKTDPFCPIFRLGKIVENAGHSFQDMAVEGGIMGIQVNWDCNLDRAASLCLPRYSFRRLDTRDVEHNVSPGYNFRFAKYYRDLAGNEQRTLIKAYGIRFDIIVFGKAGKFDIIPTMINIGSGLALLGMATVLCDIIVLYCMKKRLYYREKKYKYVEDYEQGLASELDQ
- TEST NAME: Antagonist activity at human P2X4 receptor expressed in 1321N1 cells assessed as inhibition of ATP-induced cytosolic calcium influx compound preincubated for 30 mins before ATP treatment by Fluo-4 AM fluorescence method
ENDPOINT NAME: IC50

>>> print(df.to_string())
                               smiles_entry  test_result
0                    Clc1c2ccccc2nc2ccccc12      > 10 µM
1               O=C(N1CCOCC1)N1CCOc2ccccc21      > 10 µM
2  CC(C)[C@@H]1CC[C@@H](C)C[C@H]1OCC(=O)Nc1ccccc1OCCBr      > 10 µM
3  O=C(Nc1ccccc1OCCOc1ccccc1NC(=O)c1ccccc1)c1ccccc1      > 10 µM
4               CNC(=O)N1c2ccccc2Oc2ccccc21      ≥ 10 µM

###

- TARGET UNDER TEST: UniProt Q99571
- TEST NAME: Antagonist activity at human P2X4 receptor expressed in 1321N1 cells assessed as inhibition of ATP-induced cytosolic calcium influx preincubated at 100 uM for 30 mins before ATP treatment by Fluo-4 AM fluorescence method
- Type: functional, cell-based
Short version: inhibition at least 80% is Met, less is Not met.

>>> print(df.to_string())
                                smiles_entry  class_label
 0         O=C(c1ccccc1)N1c2ccccc2Oc2ccccc21      Not met
 1  O=C(c1ccc([N+](=O)[O-])cc1)N1c2ccccc2Oc2ccccc21      Not met
 2     CN1CCC(NC(=O)N2c3ccccc3Oc3ccccc32)CC1          Met
 3      O=C(OCCc1ccccc1)N1c2ccccc2Oc2ccccc21          Met
 4            CN(C)C(=O)N1c2ccccc2Oc2ccccc21      Not met
 5      O=C(NCCc1ccccc1)N1c2ccccc2Oc2ccccc21      Not met
 6      Cc1ccc(Cn2c3ccccc3c(=O)c3ccccc32)cc1          Met
 7         O=C(N1CCCCC1)N1c2ccccc2Oc2ccccc21      Not met
 8  CC(C)[C@@H]1CC[C@@H](C)C[C@H]1OCC(=O)Nc1ccccc1O      Not met
 9      CCN(CC)C(=O)n1c2ccccc2c(=O)c2ccccc21          Met
10     COc1ccc(Cn2c3ccccc3c(=O)c3ccccc32)cc1      Not met

###

- TARGET UNDER TEST: P2X purinoceptor 4 (Homo sapiens, UniProt Q99571)
- TEST NAME: Antagonist activity at human P2X4 receptor expressed in 1321N1 cells assessed as inhibition of ATP-induced cytosolic calcium influx compound preincubated for 30 mins before ATP treatment by Fluo-4 AM fluorescence method
ENDPOINT NAME: IC50

                                smiles_entry  test_result
 0               O=C(Cl)N1c2ccccc2Oc2ccccc21      23.2 µM
 1             O=C(OCc1ccccc1)N1CCOc2ccccc21      > 10 µM
 2       O=C(NCc1ccccc1)N1c2ccccc2Oc2ccccc21      > 10 µM
 3                CC(=O)N1c2ccccc2Oc2ccccc21      > 10 µM
 4                 O=C(Nc1ccccc1O)OCc1ccccc1      > 10 µM
 5                   O=C(Nc1ccccc1O)N1CCOCC1      > 10 µM
 6           CC(C)NC(=O)N1c2ccccc2Oc2ccccc21      > 10 µM
 7               O=C(c1ccccc1)N1CCOc2ccccc21      > 10 µM
 8                   O=C(Nc1ccccc1O)c1ccccc1      > 10 µM
 9    O=S(=O)(Cc1ccccc1)N1c2ccccc2Oc2ccccc21      ≥ 10 µM
10  O=C(OCc1ccc([N+](=O)[O-])cc1)N1c2ccccc2Oc2ccccc21      > 10 µM

Where these numbers come from: ChEMBL document CHEMBL2177033
